# TEST_SYSTEM: cyclooxygenase (Mus musculus, UniProt P22437)
# Construct: endogenous in cells
# Sequence (P22437 27-602): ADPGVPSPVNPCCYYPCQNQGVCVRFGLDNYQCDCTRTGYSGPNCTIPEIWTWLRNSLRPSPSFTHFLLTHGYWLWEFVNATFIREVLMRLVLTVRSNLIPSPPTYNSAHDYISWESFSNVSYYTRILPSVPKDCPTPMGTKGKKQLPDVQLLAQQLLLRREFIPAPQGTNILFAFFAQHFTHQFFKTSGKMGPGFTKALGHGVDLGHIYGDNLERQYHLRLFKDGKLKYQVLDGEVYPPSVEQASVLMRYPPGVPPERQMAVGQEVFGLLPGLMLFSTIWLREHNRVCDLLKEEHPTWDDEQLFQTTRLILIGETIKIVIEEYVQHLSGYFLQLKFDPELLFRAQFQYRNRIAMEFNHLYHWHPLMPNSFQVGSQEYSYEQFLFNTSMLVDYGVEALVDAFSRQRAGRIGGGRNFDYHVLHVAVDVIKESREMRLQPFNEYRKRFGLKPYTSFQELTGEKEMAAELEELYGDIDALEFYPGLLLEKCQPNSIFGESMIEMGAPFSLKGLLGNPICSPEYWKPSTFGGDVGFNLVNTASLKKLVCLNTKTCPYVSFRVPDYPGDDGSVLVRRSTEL
# MEASUREMENT_DESCRIPTION: inhibition of arachidonic acid metabolism via the cyclooxygenase route (Brune et al.)
# Format: biochemical
# STUDY_CONDITIONS: read-out: % inhibition of cyclooxygenase at 1 × 10^-5 mol/l
Decision: inhibition at 10 µM >= 60% yields Y, all other cases yield N.

CC1=C(SCC(=O)NC(C)C)C(=O)c2ccccc2C1=O [Compound 10]: Y
COC1=C(OC)C(=O)c2ccccc2C1=O [Compound 4]: N
NC1=CC(=O)c2cc(S(N)(=O)=O)ccc2C1=O [Compound 6]: Y
CNC(=O)CSC1=C(C)C(=O)c2ccccc2C1=O [Compound 9]: Y
C=CCNC1=CC(=O)c2cc(S(N)(=O)=O)ccc2C1=O [Compound 12]: N
COCCOC1=CC(=O)c2ccccc2C1=O [Compound 3]: N

Data request: Say whether O=C(CSC1=C(SCC(=O)NCCO)C(=O)c2ccccc2C1=O)NCCO [Compound 11] shows inhibition at 10 µM of 60% or more.
Data returned: N

Data request: Say whether CC(=O)NC1=CC(=O)c2ccccc2C1=O [Compound 7] shows inhibition at 10 µM of 60% or more.
Data returned: Y

Data request: Say whether O=C1C=C(O)C(=O)c2ccccc21 [Compound 1] shows inhibition at 10 µM of 60% or more.
Data returned: N

Data request: Say whether CC1=C(SCC(=O)O)C(=O)c2ccccc2C1=O [Compound 8] shows inhibition at 10 µM of 60% or more.
Data returned: Y

Data request: Say whether NC1=CC(=O)c2ccccc2C1=O [Compound 5] shows inhibition at 10 µM of 60% or more.
Data returned: N

Data request: Say whether COC1=CC(=O)c2ccccc2C1=O [Compound 2] shows inhibition at 10 µM of 60% or more.
Data returned: Y

###

# TEST_SYSTEM: lipoxygenase (Rattus norvegicus)
# Construct: release of LTB4 from neutrophilic granulocytes (PMN) of the rat; endogenous in cells; host or cells: rat neutrophilic granulocytes (PMN)
# Sequence (P12527 1-673): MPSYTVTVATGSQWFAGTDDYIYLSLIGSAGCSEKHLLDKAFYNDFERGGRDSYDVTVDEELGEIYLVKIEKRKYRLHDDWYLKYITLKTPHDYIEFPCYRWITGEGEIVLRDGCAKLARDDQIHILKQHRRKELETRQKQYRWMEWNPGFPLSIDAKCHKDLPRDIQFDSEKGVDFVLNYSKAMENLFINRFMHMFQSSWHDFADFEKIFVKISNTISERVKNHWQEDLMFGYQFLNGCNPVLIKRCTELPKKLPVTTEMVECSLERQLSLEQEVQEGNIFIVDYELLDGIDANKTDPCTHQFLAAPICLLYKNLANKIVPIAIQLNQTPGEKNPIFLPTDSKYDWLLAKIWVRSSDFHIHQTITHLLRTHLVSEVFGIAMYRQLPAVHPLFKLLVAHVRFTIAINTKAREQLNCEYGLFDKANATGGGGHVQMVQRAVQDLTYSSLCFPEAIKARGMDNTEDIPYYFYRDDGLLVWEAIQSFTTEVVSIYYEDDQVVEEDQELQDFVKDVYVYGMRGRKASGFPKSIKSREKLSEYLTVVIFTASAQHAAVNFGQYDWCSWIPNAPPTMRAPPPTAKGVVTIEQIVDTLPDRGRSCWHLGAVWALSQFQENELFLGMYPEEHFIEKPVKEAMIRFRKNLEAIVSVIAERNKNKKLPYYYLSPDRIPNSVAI
# MEASUREMENT_DESCRIPTION: inhibition of arachidonic acid metabolism via the lipoxygenase route: LTB4 release from PMN of the rat after stimulation with Ca ionophor, reverse phase HPLC
# Format: cell-based
# STUDY_CONDITIONS: 1 × 10^-5 mol/l; LTB4 release from rat PMN, Ca ionophor; read-out: % inhibition of lipoxygenase at 1 × 10^-5 mol/l
Please provide measured inhibition at 10 µM for the entries that follow.
Answers are plain numbers, in %.

CCC(=O)NC1=C(OCCOC)C(=O)c2ccccc2C1=O [Compound 13]: 100

For every record below, what is its inhibition at 10 µM?
1. NC1=CC(=O)c2cc(S(N)(=O)=O)ccc2C1=O [Compound 6]
2. C=CCNC1=CC(=O)c2cc(S(N)(=O)=O)ccc2C1=O [Compound 12]
3. COC1=CC(=O)c2ccccc2C1=O [Compound 2]
4. CCOC1=C(NC(C)=O)C(=O)c2ccccc2C1=O [Compound 14]
5. CC(=O)NC1=CC(=O)c2ccccc2C1=O [Compound 7]
6. COC1=C(OC)C(=O)c2ccccc2C1=O [Compound 4]
7. O=C(CSC1=C(SCC(=O)NCCO)C(=O)c2ccccc2C1=O)NCCO [Compound 11]
8. CC1=C(SCC(=O)NC(C)C)C(=O)c2ccccc2C1=O [Compound 10]

Data returned:
1. 100
2. 100
3. 98
4. 100
5. 100
6. 100
7. 80
8. 100
